Target: Phosphoethanolamine methyltransferase (PfPMT) (Plasmodium falciparum, UniProt Q8IDQ9)
Construct: gene PMT; recombinant PfPMT expressed from pET-24a in BL21 (DE3), ~30 kDa
Sequence (Q8IDQ9 1-266): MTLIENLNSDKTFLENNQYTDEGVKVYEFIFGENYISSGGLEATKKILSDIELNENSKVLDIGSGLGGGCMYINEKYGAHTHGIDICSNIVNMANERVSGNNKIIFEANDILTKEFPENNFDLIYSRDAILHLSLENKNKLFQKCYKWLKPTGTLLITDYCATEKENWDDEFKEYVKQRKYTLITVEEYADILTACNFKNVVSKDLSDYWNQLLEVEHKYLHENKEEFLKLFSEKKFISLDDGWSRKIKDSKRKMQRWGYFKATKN
Assay: enzyme-coupled SAM methyltransferase colorimetric assay ([…] nm), Michaelis-Menten kinetics with varied pEth
Assay type: biochemical
Settings: read-out: Ki
measuredEndpoint: pKi
By convention, pKi is the negative base-10 log of a molar concentration.

# lookup: COc1ccc(CCNC(=O)CNCC2CCCO2)cc1OC (stereo not shown) on Phosphoethanolamine methyltransferase (PfPMT) (Plasmodium falciparum, UniProt Q8IDQ9), pKi = 5.66
